These data points were gathered from patent EP4335840A1.

target: OATP1B3 (Homo sapiens); test: Uptake into stable transfected OATP1B3 HEK 293 cells; format: cell-based; details: OATP1B3-HEK 293 cell uptake with Rifampicine
Sequence (Q9NPD5 whole entry): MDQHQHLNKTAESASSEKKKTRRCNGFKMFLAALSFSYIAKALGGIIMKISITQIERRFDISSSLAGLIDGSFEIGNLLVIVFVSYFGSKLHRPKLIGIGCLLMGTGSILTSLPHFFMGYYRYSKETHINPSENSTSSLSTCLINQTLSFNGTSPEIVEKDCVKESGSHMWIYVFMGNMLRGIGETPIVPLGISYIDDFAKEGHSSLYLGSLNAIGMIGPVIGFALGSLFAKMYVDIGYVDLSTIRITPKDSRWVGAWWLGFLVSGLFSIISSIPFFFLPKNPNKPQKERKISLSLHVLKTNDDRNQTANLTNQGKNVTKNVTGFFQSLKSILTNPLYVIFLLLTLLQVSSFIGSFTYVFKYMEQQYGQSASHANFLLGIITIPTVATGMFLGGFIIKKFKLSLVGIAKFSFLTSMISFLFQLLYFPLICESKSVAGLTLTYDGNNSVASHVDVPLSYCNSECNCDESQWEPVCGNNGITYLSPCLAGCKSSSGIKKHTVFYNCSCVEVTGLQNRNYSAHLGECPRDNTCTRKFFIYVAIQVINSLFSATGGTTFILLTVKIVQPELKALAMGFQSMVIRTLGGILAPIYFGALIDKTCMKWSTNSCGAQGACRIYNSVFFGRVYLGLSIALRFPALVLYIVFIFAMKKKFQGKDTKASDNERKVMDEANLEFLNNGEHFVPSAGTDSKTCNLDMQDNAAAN
ASSAY METRIC: Inhibition Rifampicine (% inhibition)

COMPOUND | EXPERIMENTAL TARGET | UNIT LABEL | RECORDED RESULT
CCOc1ccc(CC2CN(CC(=O)[O-])CCN(CC(=O)[O-])CCN(CC(=O)O)CCN2CC(=O)[O-])cc1.[Gd+3] (stereo not drawn) [Example 7] | OATP1B3 (Homo sapiens) | % inhibition | 95
CCOCCOCCOCCOc1ccc(C[C@H]2CN(CC(=O)[O-])CCN(CC(=O)[O-])CCN(CC(=O)O)CCN2CC(=O)[O-])cc1.[Gd+3] [Example 5] | OATP1B3 (Homo sapiens) | % inhibition | 96
CCOCCOCCOc1ccc(C[C@H]2CN(CC(=O)[O-])CCN(CC(=O)[O-])CCN(CC(=O)O)CCN2CC(=O)[O-])nc1.[Gd+3] [Example 6] | OATP1B3 (Homo sapiens) | % inhibition | 65

---

Assay: Relaxivity measurements at 1.41 T in water and human plasma
Type: physicochemical
Settings: water, 37°C, normalized to Gd
Experimental: Relaxivity measurements at 1.41 T were performed using a MiniSpec mq60 spectrometer (Bruker Analytik, Karlsruhe, Germany) operating at a resonance frequency of 60 MHz and a temperature of 37°C. The T1 relaxation times were determined using the standard inversion recovery (IR) method with a fixed relaxation delay of at least 5 × T1. The variable inversion time (TI) was calculated automatically by the standard software of the MiniSpec mq60 (8 steps). […]
A collection of molecules and their measured r1 water

STRUCTURE NOTATION | r1 water / L/mmol/s
COCCOCCOCCOc1ccc(C[C@@H]2CN(CC(=O)[O-])CCN(CC(=O)[O-])CCN(CC(=O)O)CCN2CC(=O)[O-])cc1.[Gd+3] | 5.0
CCOCCOCCOCCOc1ccc(C[C@H]2CN(CC(=O)[O-])CCN(CC(=O)[O-])CCN(CC(=O)O)CCN2CC(=O)[O-])cc1.[Gd+3] | 5.1
CCOCCOCCOc1ccc(C[C@H]2CN(CC(=O)[O-])CCN(CC(=O)[O-])CCN(CC(=O)O)CCN2CC(=O)[O-])cc1.[Gd+3] | 4.9
COCCOCCOCCOc1ccc(C[C@H]2CN(CC(=O)[O-])CCN(CC(=O)[O-])CCN(CC(=O)O)CCN2CC(=O)[O-])cc1.[Gd+3] | 5.1
